From: patent US10093630B2

target: MAGL (Mus musculus, UniProt O35678); construct: Proteomes (mouse brain membrane fraction or cell lysates); from tissue; host or cells: mouse brain membrane fraction (or cell lysates, not specified); assay: In vitro competitive activity-based protein profiling (gel-based, FP-Rh or HT-01 probe); assay type: biochemical; settings: mouse brain membrane fraction or cell lysates, 30 min preincubation at 37° C.; read-out: Mouse (IC50 value, nM) MAGL
Sequence (O35678 whole entry): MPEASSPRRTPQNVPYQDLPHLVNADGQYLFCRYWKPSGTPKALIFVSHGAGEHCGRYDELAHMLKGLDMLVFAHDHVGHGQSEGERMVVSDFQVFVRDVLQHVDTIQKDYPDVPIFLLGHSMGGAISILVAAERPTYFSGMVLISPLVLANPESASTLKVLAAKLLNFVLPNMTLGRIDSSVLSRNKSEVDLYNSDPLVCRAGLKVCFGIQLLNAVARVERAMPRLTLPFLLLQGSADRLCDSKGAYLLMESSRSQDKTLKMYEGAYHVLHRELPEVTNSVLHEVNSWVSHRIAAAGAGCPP
# IC50 listing for each entry below

1) CCN(Cc1ccc(C)cc1)C(=O)n1cc(C(F)(F)F)cn1 > 1000 nM
2) O=C(N1CCN(Cc2ccccc2C(F)(F)F)CC1)n1cc(C(F)(F)F)cn1 < 100 nM
3) O=C(N1CCN(Cc2cccc(F)c2)CC1)n1cc(C(F)(F)F)cn1 < 100 nM
4) Cc1cc(-c2ccccc2)ccc1CN1CCN(C(=O)n2cc(C#N)cn2)CC1 < 100 nM

For the next question, use this compound.
Assign IC50 to the following record: Cc1cc(N2CCOCC2)ccc1CN1CCN(C(=O)n2cc(Cl)cn2)CC1
< 100 nM
